- TESTED_TARGET: Adenosine receptor A2a (Rattus norvegicus)
- Sequence (P30543 whole entry): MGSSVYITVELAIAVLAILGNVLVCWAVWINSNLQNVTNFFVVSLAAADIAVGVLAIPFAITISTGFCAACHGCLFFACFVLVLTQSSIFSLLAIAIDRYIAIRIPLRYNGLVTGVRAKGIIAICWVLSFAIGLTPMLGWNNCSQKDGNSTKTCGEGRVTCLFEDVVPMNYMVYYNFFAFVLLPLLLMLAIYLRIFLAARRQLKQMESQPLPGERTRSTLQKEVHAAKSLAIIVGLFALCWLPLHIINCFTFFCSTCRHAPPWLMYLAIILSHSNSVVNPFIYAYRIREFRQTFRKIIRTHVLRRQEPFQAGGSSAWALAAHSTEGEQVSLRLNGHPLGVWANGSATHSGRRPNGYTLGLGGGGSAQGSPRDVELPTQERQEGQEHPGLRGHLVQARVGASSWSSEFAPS
- ASSAY_PROTOCOL: Inhibitory activity against Adenosine A2a receptor using [3H]NECA in rat striatal membranes
ENDPOINT: pIC50
Numbers only, as −log10 of the molar value.

Below, each entry is followed by its recorded pIC50 result.
MOL: O=C(O)CC1=C(n2nc(-c3c(-c4ccccc4)nn4ccccc34)ccc2=O)CCCC1
pIC50: 5.21

MOL: O=C(O)C[C@@H]1CCCC[C@H]1n1nc(-c2c(-c3ccccc3)nn3ccccc23)ccc1=O
pIC50: 7.00

MOL: O=C(/C=C/c1c(-c2ccccc2)nn2ccccc12)N1CCCC[C@@H]1CCO
pIC50: 4.96

MOL: O=C(O)CCCn1nc(-c2c(-c3ccccc3)nn3ccccc23)ccc1=O
pIC50: 5.23

MOL: O=C(O)C[C@H]1CCCC[C@H]1n1nc(-c2c(-c3ccccc3)nn3ccccc23)ccc1=O
pIC50: 5.26

Return reported pIC50 values for all items listed beneath this line.
1. O=C(O)CC1=C(n2nc(-c3c(-c4ccccc4)nn4ccccc34)ccc2=O)CCC1
2. O=C(O)CC1=C(n2nc(-c3c(-c4ccccc4)nn4ccccc34)ccc2=O)CCCCC1

[6.08, 5.26]
